# MEASUREMENT_TARGET: T1, Recombinant human CTLA4-Fc (human, UniProt P16410 36-161, limits assumed)
# T1 construct: Coated on the ELISA plate at 1 ug/mL; also called antigen; not shown: Fc part
# T1 sequence (looked up): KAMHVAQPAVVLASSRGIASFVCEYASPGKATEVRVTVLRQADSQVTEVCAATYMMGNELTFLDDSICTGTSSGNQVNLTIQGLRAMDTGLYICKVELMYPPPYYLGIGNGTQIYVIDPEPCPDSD
# ASSAY_REMARKS: ELISA EC50 divided by EC50 of parental TY21580, third block of Table 6
# Method: Recombinant human CTLA4-Fc was diluted to 1μg/mL in PBS and coated on a Maxisorp plate at 4° C. overnight. Plates were blocked with PBS supplemented with 3% non-fat milk at 37° C. for 1 hour. […] Absorbance at 450 nm was measured after the reactions were stopped with 50 μL H₂SO₄ per well. The EC₅₀ was evaluated by fitting the ELISA data using the asymmetrical sigmoidal (five-parameter logistic equation) model of GraphPad Prism 6 software.
Overview of recorded Masking efficiency for various binders
MEASUREMENT_NAME: Masking efficiency

{"BINDER": "TY22563 (antibody, V domains shown, IgG1, uncleaved; mask derived from B13192 or B13197 to remove a potential glycosylation site) VH: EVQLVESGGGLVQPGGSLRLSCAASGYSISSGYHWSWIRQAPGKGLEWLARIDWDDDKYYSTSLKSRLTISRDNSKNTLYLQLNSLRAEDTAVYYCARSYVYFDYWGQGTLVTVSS VL: EVGSYYSAYPACDSHYPYCQSSGRSAGGGGSPLGLAGSGGSDIQLTQSPSSLSASVGDRVTITCRASQSVRGRFLAWYQQKPGKAPKLLIYDASNRATGIPSRFSGSGSGTDFTLTISSLQPEDFATYYCQQSSSWPPTFGQGTKVEIKR", "MEASUREMENT_NAME": "Masking efficiency", "RESULT": 144}
{"BINDER": "TY22566 (antibody, V domains shown, IgG1, uncleaved; mask derived from B13192 or B13197 to remove a potential glycosylation site) VH: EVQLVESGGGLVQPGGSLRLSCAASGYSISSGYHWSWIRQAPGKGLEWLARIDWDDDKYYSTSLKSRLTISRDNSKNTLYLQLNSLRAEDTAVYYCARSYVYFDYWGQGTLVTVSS VL: EVGSYPNPASDCVPYYYACAYSGRSAGGGGSPLGLAGSGGSDIQLTQSPSSLSASVGDRVTITCRASQSVRGRFLAWYQQKPGKAPKLLIYDASNRATGIPSRFSGSGSGTDFTLTISSLQPEDFATYYCQQSSSWPPTFGQGTKVEIKR", "MEASUREMENT_NAME": "Masking efficiency", "RESULT": 489}
{"BINDER": "TY22565 (antibody, V domains shown, IgG1, uncleaved; mask derived from B13192 or B13197 to remove a potential glycosylation site) VH: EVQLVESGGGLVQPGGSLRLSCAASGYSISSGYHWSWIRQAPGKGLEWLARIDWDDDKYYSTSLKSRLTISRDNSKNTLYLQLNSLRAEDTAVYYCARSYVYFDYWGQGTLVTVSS VL: EVGSYPQPSSDCVPYYYACAYSGRSAGGGGSPLGLAGSGGSDIQLTQSPSSLSASVGDRVTITCRASQSVRGRFLAWYQQKPGKAPKLLIYDASNRATGIPSRFSGSGSGTDFTLTISSLQPEDFATYYCQQSSSWPPTFGQGTKVEIKR", "MEASUREMENT_NAME": "Masking efficiency", "RESULT": 632}
{"BINDER": "TY22564 (antibody, V domains shown, IgG1, uncleaved; mask derived from B13192 or B13197 to remove a potential glycosylation site) VH: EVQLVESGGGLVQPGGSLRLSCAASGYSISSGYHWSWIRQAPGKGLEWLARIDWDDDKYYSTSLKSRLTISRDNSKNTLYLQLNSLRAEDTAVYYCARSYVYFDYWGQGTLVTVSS VL: EVGSYYSAYPACDSHYPYCNSAGRSAGGGGSPLGLAGSGGSDIQLTQSPSSLSASVGDRVTITCRASQSVRGRFLAWYQQKPGKAPKLLIYDASNRATGIPSRFSGSGSGTDFTLTISSLQPEDFATYYCQQSSSWPPTFGQGTKVEIKR", "MEASUREMENT_NAME": "Masking efficiency", "RESULT": 117}
